tested on: large crabgrass (Digitaria sanguinalis); test: Test A pre-/postemergence plant response; format: in vivo; conditions: Preemergence, 500 g ai/ha; 0 to 100 scale, 0 = no effect, 100 = complete control
We label by threshold. Values of Plant response rating, Crabgrass, Large strictly beneath 70 are met. Values of 70 and up are not met.

Example entries and their recorded answers appear below.
O=C(C1=C(O)C2CCC(C2)C1=O)c1cnc(-c2cccc(Br)c2)n(C2CCCCC2)c1=O (stereo not shown) [Compound 252] : met
CCc1ccc(-n2c(-c3cccc(Br)c3)ncc(C(=O)C3=C(O)CCCC3=O)c2=O)cc1 [Compound 177] : met
CCCCn1c(-c2cc(F)cc(F)c2)ncc(C(=O)C2=C(O)C3CCC(C3)C2=O)c1=O (stereo not shown) [Compound 245] : not met

Challenge: Just wondering, is Plant response rating, Crabgrass, Large of Cc1ccc(Cl)cc1-n1c(-c2cc(F)cc(F)c2)ncc(C(=O)C2=C(O)CCCC2=O)c1=O [Compound 179] below 70?
Response given: not met

Challenge: Just wondering, is Plant response rating, Crabgrass, Large of CCn1c(Cc2ccccc2)ncc(C(=O)C2=C(O)CCCC2=O)c1=O [Compound 200] below 70?
Response given: met

Challenge: Just wondering, is Plant response rating, Crabgrass, Large of O=C1CCCC(O)=C1C(=O)c1cnc(-c2ccccc2)n(C2CC[S+]([O-])CC2)c1=O (mixture of isomers) [Compound 168] below 70?
Response given: not met
